Target: human recombinant COX-2 (Homo sapiens)
Sequence (P35354 18-604): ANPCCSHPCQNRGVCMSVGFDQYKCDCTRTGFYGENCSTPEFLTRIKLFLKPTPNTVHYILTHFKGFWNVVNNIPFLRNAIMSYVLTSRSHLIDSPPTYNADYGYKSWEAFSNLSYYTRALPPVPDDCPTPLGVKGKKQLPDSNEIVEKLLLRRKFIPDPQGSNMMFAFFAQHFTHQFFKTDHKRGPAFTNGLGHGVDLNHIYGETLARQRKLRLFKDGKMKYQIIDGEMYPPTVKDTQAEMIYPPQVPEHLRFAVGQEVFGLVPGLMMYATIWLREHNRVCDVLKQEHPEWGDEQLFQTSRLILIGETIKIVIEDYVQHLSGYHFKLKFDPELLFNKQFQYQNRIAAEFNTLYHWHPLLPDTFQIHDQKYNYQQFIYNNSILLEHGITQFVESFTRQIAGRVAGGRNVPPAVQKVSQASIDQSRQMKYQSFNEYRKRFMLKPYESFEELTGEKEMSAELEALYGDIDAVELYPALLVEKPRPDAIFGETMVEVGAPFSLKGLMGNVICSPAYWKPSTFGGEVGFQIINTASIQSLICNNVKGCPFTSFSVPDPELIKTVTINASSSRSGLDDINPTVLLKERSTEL
Assay: In vitro COX-2 inhibition assay kit (Cayman)
Settings: human recombinant COX-2; mean ± SEM, n = 3 replicates
Catalogue of pIC50 values
In textbook form, pIC50 equals minus log to base ten of the concentration in mol/L.

CN1CN(NC(=O)Nc2ccccc2)C(=O)c2ccccc21 [Compound 6a] : 4.17
COc1ccc(NC(=O)NN2C(=O)c3ccccc3N(C)C2c2ccc(OC)cc2)cc1 (centres unmarked) [Compound 6j] : 5.30
CN1c2ccccc2C(=O)N(NC(=O)Nc2ccc(F)cc2)C1c1ccc([N+](=O)[O-])cc1 (centres unmarked) [Compound 6o] : 5.00
CN1c2ccccc2C(=O)N(NC(=O)Nc2ccc(F)cc2)C1c1ccccc1 (centres unmarked) [Compound 6m] : 5.50

Request: So what does the record say about pIC50 for COc1ccc(C2N(NC(=O)Nc3ccc(F)cc3)C(=O)c3ccccc3N2C)cc1 (centres unmarked) [Compound 6p] ?
Result: 5.03
